Test system: Bovine brain tubulin (vinca domain)
protocol-notes: Inhibition of [3H]vinblastine binding to tubulin
assay-setup: 80 μM inhibitor; 5.0 μM tubulin, 5 μM [3H]vinblastine
outcome-measure: Inhibition of vinblastine binding % Inhibition ± SD (%)

smiles-text: COc1ccc(C=Cc2cc(OC)c(OC)c(OC)c2)cc1O
assayed-target: Bovine brain tubulin (vinca domain)
number: 0
//
smiles-text: CC[C@H](C)[C@@H]([C@@H](CC(=O)N1CCC[C@H]1[C@H](OC)[C@@H](C)C(=O)Nc1cc(/C=C\c2cc(OC)c3c(c2)OCO3)ccc1OC)OC)N(C)C(=O)[C@@H](NC(=O)[C@H](C(C)C)N(C)C)C(C)C
assayed-target: Bovine brain tubulin (vinca domain)
number: 87
//
smiles-text: COc1ccc(C=Cc2cc(OC)c3c(c2)OCO3)cc1N
assayed-target: Bovine brain tubulin (vinca domain)
number: 0
//
smiles-text: CC[C@H](C)[C@@H]([C@@H](CC(=O)N1CCC[C@H]1[C@H](OC)[C@@H](C)C(=O)O)OC)N(C)C(=O)[C@@H](NC(=O)[C@H](C(C)C)N(C)C)C(C)C
assayed-target: Bovine brain tubulin (vinca domain)
number: 68
